src = patent US11684610B2

Tested on: HepG2 (hepatocellular carcinoma)
Experiment: Cell viability in solid cancer cells, WST assay, HepG2
Assay type: cell-based, human
Conditions: HepG2, 1 to 30 μM, 6 hours
pIC50: −log10 of the molar value.

Molecule: CC1(C)CCC2=C(O1)c1ccccc1C(=O)C2=O [beta-rapacon, β-lapachone, reference compound]
Target system: HepG2 (hepatocellular carcinoma)
pIC50: 4.91

###

System: HepG2 (hepatocellular carcinoma)
Test: Cell viability in solid cancer cells, WST assay, HepG2
Format: cell-based, human
Conditions: Homo sapiens, HepG2, 1 to 30 μM, 6 hours
pIC50: −log10 of the molar value.

Molecule: CCc1nc2c([nH]1)C(=O)C(=O)c1ccccc1-2 [compound 10]
Target system: HepG2 (hepatocellular carcinoma)
pIC50: 4.92
//
Molecule: CC(C)c1nc2c([nH]1)C(=O)C(=O)c1ccccc1-2 [compound 1]
Target system: HepG2 (hepatocellular carcinoma)
pIC50: 5.00
//
Molecule: O=C1C(=O)c2[nH]c(C3CCCO3)nc2-c2ccccc21 (stereo not drawn) [compound 72]
Target system: HepG2 (hepatocellular carcinoma)
pIC50: 4.90
